Origin of values: patent US20110015162A1

- system: androgen receptor (Homo sapiens)
- Sequence (P10275 whole entry, species assumed): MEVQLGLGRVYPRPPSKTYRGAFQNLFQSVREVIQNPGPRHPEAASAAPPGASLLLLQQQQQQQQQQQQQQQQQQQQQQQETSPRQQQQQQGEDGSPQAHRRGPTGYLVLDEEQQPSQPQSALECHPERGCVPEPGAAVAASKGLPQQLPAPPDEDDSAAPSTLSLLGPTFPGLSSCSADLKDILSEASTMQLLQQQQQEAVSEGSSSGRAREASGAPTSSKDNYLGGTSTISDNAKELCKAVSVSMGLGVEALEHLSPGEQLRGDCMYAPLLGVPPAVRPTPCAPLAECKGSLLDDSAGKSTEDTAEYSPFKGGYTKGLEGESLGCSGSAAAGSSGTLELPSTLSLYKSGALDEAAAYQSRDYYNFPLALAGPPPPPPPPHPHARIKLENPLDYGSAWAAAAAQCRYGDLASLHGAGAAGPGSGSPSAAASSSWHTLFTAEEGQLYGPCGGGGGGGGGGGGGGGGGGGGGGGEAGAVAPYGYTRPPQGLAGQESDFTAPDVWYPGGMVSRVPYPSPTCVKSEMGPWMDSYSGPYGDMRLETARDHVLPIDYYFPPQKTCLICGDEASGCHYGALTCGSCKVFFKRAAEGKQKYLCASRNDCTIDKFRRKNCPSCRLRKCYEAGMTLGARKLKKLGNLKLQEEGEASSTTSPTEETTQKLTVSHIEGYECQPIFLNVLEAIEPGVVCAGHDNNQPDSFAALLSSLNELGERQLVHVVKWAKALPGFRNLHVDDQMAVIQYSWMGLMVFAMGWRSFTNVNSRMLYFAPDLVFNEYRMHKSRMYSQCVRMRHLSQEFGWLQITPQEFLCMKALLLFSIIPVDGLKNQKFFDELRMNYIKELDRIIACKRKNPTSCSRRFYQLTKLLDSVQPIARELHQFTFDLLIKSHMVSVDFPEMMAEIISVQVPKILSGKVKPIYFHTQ
- experimental details: Androgenic/antiandrogenic action by transactivation test (PC3 reporter cells)
- Format: cell-based
- Design: expressed in transfected cells; host or cells: PC3 cells
- Procedure: The test compounds were added eight hours later, and the cells were incubated with the compounds for 16 hours. The tests were carried out in triplicate. […] After luciferase assay substrate (Promega, #E1501) had been added, the 96-well plates were then put in a microplate luminometer (Pherastar, BMG Labtech), and the luminescence was measured. The IC50 values were evaluated using software for calculating dose-effect relations. […]
measure: pIC50
Give bare numbers, as −log10 of the molar value.

The examples below pair each entry with its known result.
GET /values?readout=pIC50&system=androgen receptor (Homo sapiens)&item= CC[C@]12CC[C@H]3[C@@H]([C@H]4C[C@H]4C4=C(Cl)C(=O)CC[C@@H]43)[C@@H]1[C@@H]1C[C@@H]1[C@@]21C=CC(=O)O1 [Example 8]
6.89

GET /values?readout=pIC50&system=androgen receptor (Homo sapiens)&item= C[C@]12CC[C@H]3[C@@H](CCC4=CC(=O)CC[C@@H]43)[C@@H]1[C@H]1C[C@H]1[C@@]21C=CC(=O)O1 [Example 12]
7.07

Next:
GET /values?readout=pIC50&system=androgen receptor (Homo sapiens)&item= CC[C@@H]1CC2=CC(=O)CC[C@@H]2[C@H]2CC[C@@]3(C)[C@@H]([C@@H]4C[C@@H]4[C@@]34C=CC(=O)O4)[C@H]12 [Example 24A]
7.96
